Measurement target: human α4β7 integrin (Homo sapiens, UniProt P13612+P26010)
Construct: expressed in transfected cells; host or cells: K562 cells, stably transfected
Assay overview: α4β7-K562 Cell Adhesion Assay (α4β7 Mediated Adhesion/MAdCAM-1)
Format: cell-based
Measurement context: α4β7-K562 cell adhesion to hMAdCAM-1; read-out: α4β7 IC50
// assign 1.0 if IC50 falls strictly below 200 nM, else 0.0 (ties count as 0.0)

>  <Molecule>
COC(=O)[C@H](Cc1ccc(-c2c(OC)cnn(C)c2=O)cc1)NC(=O)[C@@H]1C2CCC(CC2)N1C(=O)CCc1ccccc1

>  <Class name>
0.0

$$$$
>  <Molecule>
COc1cnn(CC(N)=O)c(=O)c1-c1ccc(C[C@H](NC(=O)c2c(Cl)cccc2Cl)C(=O)O)cc1

>  <Class name>
1.0

$$$$
>  <Molecule>
COc1cnn(C)c(=O)c1-c1ccc(CC(NC(=O)C(C(C)C)n2c(C)ccc2C)C(=O)O)cc1 (stereo not drawn) [Cpd 213]

>  <Class name>
0.0

$$$$
>  <Molecule>
COc1cnn(C)c(=O)c1-c1ccc(C[C@H](NC(=O)C(=O)C(C)C)C(=O)O)cc1

>  <Class name>
0.0

$$$$
>  <Molecule>
COc1cnn(CCN2CCOCC2)c(=O)c1-c1ccc(C[C@H](NC(=O)[C@@H](NC(=O)OC(C)(C)C)[C@@H](C)O)C(=O)O)cc1

>  <Class name>
0.0

$$$$
>  <Molecule>
Cn1ncc(OCc2cccnc2)c(-c2ccc(C[C@H](NC(=O)c3c(Cl)cccc3Cl)C(=O)O)cc2)c1=O

>  <Class name>
1.0

$$$$

Problem: For the molecule COc1cnn(C)c(=O)c1-c1ccc(C[C@H](NC(=O)c2c(Cl)cccc2Cl)C(=O)OCCN(C)C)cc1 , is IC50 under 200 nM?
1.0

Problem: For the molecule Cn1ncc(OCCOCCO)c(-c2ccc(C[C@H](NC(=O)c3c(Cl)cccc3Cl)C(=O)O)cc2)c1=O , is IC50 under 200 nM?
1.0

Just wondering, is IC50 of Cn1ncc(O)c(-c2ccc(C[C@H](NC(=O)c3c(Cl)cccc3Cl)C(=O)O)cc2)c1=O below 200 nM?
1.0

Threshold test, IC50 < 200 nM: COc1cnn(C)c(=O)c1-c1ccc(C[C@H](NC(=O)C2(NC(=O)OC(C)(C)C)CCCCC2)C(=O)O)cc1
0.0

Quick check: does COc1cnn(C)c(=O)c1-c1ccc(CC(NC(=O)C(C(C)C)n2cccc2)C(=O)O)cc1 (stereo not drawn) have IC50 under 200 nM?
1.0

---

Measurement target: human α4β7 integrin (Homo sapiens, UniProt P13612+P26010)
Construct: expressed in transfected cells; host or cells: K562 cells, stably transfected
Sequence (P13612 34-1032): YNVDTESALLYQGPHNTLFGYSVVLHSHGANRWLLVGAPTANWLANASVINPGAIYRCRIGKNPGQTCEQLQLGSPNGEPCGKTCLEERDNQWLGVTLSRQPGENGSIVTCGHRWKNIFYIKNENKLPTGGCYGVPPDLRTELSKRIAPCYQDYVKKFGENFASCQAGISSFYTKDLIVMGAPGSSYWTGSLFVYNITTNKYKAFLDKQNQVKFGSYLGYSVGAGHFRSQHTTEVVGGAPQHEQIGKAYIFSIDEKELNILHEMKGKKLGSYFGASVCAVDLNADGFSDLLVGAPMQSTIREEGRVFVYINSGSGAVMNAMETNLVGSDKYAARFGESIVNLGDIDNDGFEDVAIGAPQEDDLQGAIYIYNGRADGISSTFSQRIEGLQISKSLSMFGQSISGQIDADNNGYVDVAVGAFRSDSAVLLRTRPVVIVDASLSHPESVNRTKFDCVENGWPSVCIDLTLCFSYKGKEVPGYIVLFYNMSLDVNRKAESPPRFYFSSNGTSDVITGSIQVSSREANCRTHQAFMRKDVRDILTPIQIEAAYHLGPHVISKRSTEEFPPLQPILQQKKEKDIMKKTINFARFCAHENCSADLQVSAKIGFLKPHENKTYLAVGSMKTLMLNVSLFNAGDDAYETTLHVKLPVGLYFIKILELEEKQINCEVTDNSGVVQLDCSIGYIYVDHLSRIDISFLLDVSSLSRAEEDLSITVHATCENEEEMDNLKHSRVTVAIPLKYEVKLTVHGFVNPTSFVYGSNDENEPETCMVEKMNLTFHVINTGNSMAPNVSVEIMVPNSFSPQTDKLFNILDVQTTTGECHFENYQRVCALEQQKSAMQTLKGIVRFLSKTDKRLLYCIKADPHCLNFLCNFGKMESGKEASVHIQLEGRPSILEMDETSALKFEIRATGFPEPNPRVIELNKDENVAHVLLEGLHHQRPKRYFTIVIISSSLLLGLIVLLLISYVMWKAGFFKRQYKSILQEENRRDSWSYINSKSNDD
Sequence (P26010 20-798): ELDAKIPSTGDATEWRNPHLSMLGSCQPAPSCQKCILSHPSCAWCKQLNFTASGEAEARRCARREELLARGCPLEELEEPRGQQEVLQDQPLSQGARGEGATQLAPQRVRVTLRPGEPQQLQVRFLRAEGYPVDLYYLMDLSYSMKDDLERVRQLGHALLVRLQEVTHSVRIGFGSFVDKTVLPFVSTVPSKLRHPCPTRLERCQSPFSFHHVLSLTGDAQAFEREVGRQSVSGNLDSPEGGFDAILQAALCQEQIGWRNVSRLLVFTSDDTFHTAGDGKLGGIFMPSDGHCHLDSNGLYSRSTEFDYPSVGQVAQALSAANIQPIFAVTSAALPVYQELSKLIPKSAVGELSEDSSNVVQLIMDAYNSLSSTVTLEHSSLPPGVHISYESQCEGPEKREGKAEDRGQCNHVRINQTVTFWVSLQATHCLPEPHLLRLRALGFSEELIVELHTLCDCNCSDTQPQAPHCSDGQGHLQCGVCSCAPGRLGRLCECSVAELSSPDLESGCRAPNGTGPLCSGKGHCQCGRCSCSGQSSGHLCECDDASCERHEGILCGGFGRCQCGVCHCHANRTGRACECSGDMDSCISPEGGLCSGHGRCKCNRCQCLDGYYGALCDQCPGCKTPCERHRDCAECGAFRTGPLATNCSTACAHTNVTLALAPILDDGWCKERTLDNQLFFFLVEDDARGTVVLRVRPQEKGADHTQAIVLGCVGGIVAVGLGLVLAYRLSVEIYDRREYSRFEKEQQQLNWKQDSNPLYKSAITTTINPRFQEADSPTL
Assay overview: α4β7-K562 Cell Adhesion Assay (α4β7 Mediated Adhesion/MAdCAM-1)
Assay type: cell-based
Measurement context: α4β7-K562 cell adhesion to hMAdCAM-1; read-out: α4β7 IC50
pIC50: −log10 of the molar value.
Decision: pIC50 compared against 7; not below it gives y, below it gives n.

Consider the following illustrative entries.
>  <Compound>
COc1cnn(C)c(=O)c1-c1ccc(C[C@H](NC(=O)OC(C)C)C(=O)O)cc1 [Cpd 184]

>  <Class name>
n

$$$$
>  <Compound>
O=C(N[C@@H](Cc1ccc(-c2c(OCc3cccnc3)cnn(CCO)c2=O)cc1)C(=O)O)c1c(Cl)cccc1Cl [Cpd 30]

>  <Class name>
y

$$$$
>  <Compound>
O=C(N[C@@H](Cc1ccc(-c2c(-n3cc(Br)cn3)cnn(CCO)c2=O)cc1)C(=O)O)c1c(Cl)cccc1Cl [Cpd 94]

>  <Class name>
y

$$$$
>  <Compound>
Cn1ncc(CC(=O)O)c(-c2ccc(C[C@H](NC(=O)c3c(Cl)cccc3Cl)C(=O)O)cc2)c1=O [Cpd 152]

>  <Class name>
n

$$$$
>  <Compound>
COc1cnn(C)c(=O)c1-c1ccc(C[C@H](NC(=O)[C@@H](C(C)C)N(C)C(=O)Cc2ccsc2)C(=O)O)cc1 [Cpd 19]

>  <Class name>
y

$$$$
>  <Compound>
O=C(N[C@@H](Cc1ccc(-c2c(-n3ncc4ccccc43)cnn(CCO)c2=O)cc1)C(=O)O)c1c(Cl)cccc1Cl [Cpd 88]

>  <Class name>
y

$$$$

Test whether the compound O=C(N[C@@H](Cc1ccc(-c2c(N3CCOCC3)cnn(CCO)c2=O)cc1)C(=O)O)c1c(Cl)cccc1Cl [Cpd 61] records pIC50 of 7 or higher.
y

Tell me whether pIC50 is at least 7 here: CSc1cnn(C(C)(C)C)c(=O)c1-c1ccc(C[C@H](NC(=O)c2c(Cl)cccc2Cl)C(=O)O)cc1 [Cpd 78]
y

In plain terms: is recorded pIC50 at least 7 for COc1cnn(C)c(=O)c1-c1ccc(C[C@H](NC(=O)C(NS(=O)(=O)c2ccccc2[N+](=O)[O-])C(C)C)C(=O)O)cc1 (mixture of isomers) [Cpd 77] ?
y

hey, is pIC50 for this one >= 7? COc1cnn(C)c(=O)c1-c1ccc(CC(NC(=O)C(NC(C)C)C(C)C)C(=O)O)cc1 (stereo not drawn) [Cpd 153]
n

Quick check: does COC(=O)N[C@@H](Cc1ccc(-c2c(OC)cnn(C)c2=O)cc1)C(=O)O [Cpd 178] have pIC50 greater than or equal to 7?
n

Quick check, pIC50 >= 7? COc1cnn(C)c(=O)c1-c1ccc(C[C@H](NC(=O)C23CCC(CC2)CN3C(=O)CCC2CCNCC2)C(=O)O)cc1 [Cpd 139]
n

Is pIC50 for COc1cnn(C)c(=O)c1-c1ccc(CC(NC(=O)C(N)C(C)C)C(=O)O)cc1 (stereo not drawn) [Cpd 181] at or above 7?
n

Cited source: patent US20050192279A1
